compounds and their reported MIC
# Tested on: E. coli (TG1) (pTZ19U-3)
# test_description: microbe, parasite or virus in culture
# experimental_conditions: Escherichia coli, read-out: Minimum Inhibitory Concentrations (MIC)

compound | measurement_unit | MIC
CC1O[C@@H](O[C@@H]2C(O)[C@H](NC(=O)[C@@H](O)CCN)CC(N)[C@H]2O[C@H]2OC(CN)[C@@H](O)[C@H](O)C2N)C(O)[C@@H](O)[C@@H]1N (some centres unmarked) | µg/mL | 4
C[C@H]1O[C@@H](O[C@@H]2[C@@H](O)[C@H](NC(=O)[C@@H](O)CCN)C[C@H](N)[C@H]2O[C@H]2O[C@H](CN)CC[C@H]2N)[C@H](O)[C@@H](O)[C@@H]1N | µg/mL | 1
CC1O[C@@H](O[C@H]2C(O[C@H]3OC(CN)CCC3N)C(N)C[C@@H](N)C2O)C(O)[C@@H](O)[C@@H]1N (some centres unmarked) | µg/mL | 4
NC[C@H]1O[C@H](O[C@H]2[C@H](O[C@@H]3O[C@H](CO)[C@@H](O)[C@H]3O)[C@@H](O)[C@H](N)C[C@@H]2N)[C@H](N)[C@@H](O)[C@@H]1O | µg/mL | 32
NCC[C@H](O)C(=O)N[C@@H]1C[C@H](N)[C@@H](O[C@H]2O[C@H](CN)[C@@H](O)[C@H](O)[C@H]2O)[C@H](O)[C@H]1O[C@H]1O[C@H](CO)[C@@H](O)[C@H](N)[C@H]1O | µg/mL | 0.5

---

# System: E. coli (TG1)
# test_description: MIC, standard dilution and diffusion assay, aminoglycoside susceptible strain
# experimental_conditions: Escherichia coli, read-out: Minimum Inhibitory Concentration
compounds and their reported MIC
quantity_kind: MIC

compound | test_value
CC1O[C@@H](O[C@H]2C(O[C@H]3OC(CN)CCC3N)C(N)C[C@@H](N)C2O)C(O)[C@@H](O)[C@@H]1N (stereo partly shown) | 8 µg/mL
CC1O[C@@H](O[C@H]2C(O[C@H]3OC(CN)[C@@H](O)[C@H](O)C3N)C(N)C[C@@H](NC(=O)[C@@H](O)CCN)C2OCCN)C(O)[C@@H](O)[C@@H]1N (stereo partly shown) | 8 µg/mL
CC1O[C@@H](O[C@@H]2C(O)C(N)CC(N)C2O[C@H]2OC(CN)[C@@H](O)C(O)C2N)C(O)C(O)[C@@H]1N (stereo partly shown) | 8 µg/mL
NCC[C@H](O)C(=O)N[C@@H]1C[C@H](N)[C@@H](O[C@H]2O[C@H](CN)[C@@H](O)[C@H](O)[C@H]2O)[C@H](O)[C@H]1O[C@H]1O[C@H](CO)[C@@H](O)[C@H](N)[C@H]1O | 1 µg/mL
CC1O[C@@H](O[C@@H]2C(O)[C@H](NC(=O)[C@@H](O)CCN)CC(N)[C@H]2O[C@H]2OC(CN)[C@@H](O)[C@H](O)C2N)C(O)[C@@H](O)[C@@H]1N (stereo partly shown) | 4 µg/mL
NC[C@H]1O[C@H](O[C@H]2[C@H](O[C@@H]3O[C@H](CO)[C@@H](O)[C@H]3O)[C@@H](O)[C@H](N)C[C@@H]2N)[C@H](N)[C@@H](O)[C@@H]1O | 2 µg/mL
CC1O[C@@H](O[C@@H]2C(OCCN)C(N)CC(N)C2O[C@H]2OC(CN)[C@@H](O)C(O)C2N)C(O)C(O)[C@@H]1N (stereo partly shown) | 8 µg/mL
